Test system: MDA-MB-231
Assay: Cytotoxicity against human MDA-MB-231 cells assessed as cell growth inhibition incubated for 48 hrs by SRB method
Type: functional, cell-based
Conditions: MDA-MB-231, 48 h
Structures can show the parent of a compound that is named as a salt.
Recorded IC50 for the following molecules

The following molecules have reported results that may help.
C[C@@H](c1cc(C(=O)O)c2nc3cccc([C@@H](C)O)c3nc2c1)c1cccc2nc3c(C(=O)O)cccc3nc12 :: > 10 µM
C[C@@H](O)c1cccc2nc3c(C(=O)O[C@H](C)c4cccc5nc6c(C(=O)O)cccc6nc45)cccc3nc12 :: 0.01 µM
C[C@H](c1cc([C@@H](C)O)c2nc3cccc(C(=O)O)c3nc2c1)c1cccc2nc3c(C(=O)O)cccc3nc12 :: > 10 µM
CC(=O)c1cccc2nc3c(C(=O)O[C@H](C)c4cccc5nc6c(C(=O)O)cccc6nc45)cccc3nc12 :: 0.052 µM
C[C@H](c1cccc2nc3c(C(=O)O)cccc3nc12)c1ccc(C(=O)O)c2nc3cccc([C@@H](C)O)c3nc12 :: > 10 µM
C[C@@H](OC(=O)c1ccccc1N)c1cccc2nc3c(C(=O)O)cccc3nc12 :: > 10 µM

Enquiry: Give its IC50 value. Item: COc1cccc2c1C(=O)c1c(O)c3c(c(O)c1C2=O)C[C@@](O)(C(=O)CO)C[C@@H]3O[C@H]1C[C@H](N)[C@H](O)[C@H](C)O1 [DOXORUBICIN HYDROCHLORIDE]
Return: 0.15 µM

Enquiry: Now the molecule `CC(=O)c1cccc2nc3c(C(=O)O)ccc([C@H](C)c4cccc5nc6c(C(=O)O)cccc6nc45)c3nc12`
Return: > 10 µM

Enquiry: Try this molecule next: `C[C@@H](O)c1cccc2nc3c(C(=O)O)cccc3nc12`
Return: > 10 µM

Enquiry: Query `C[C@@H](c1cccc2nc3c(C(=O)O)cccc3nc12)c1ccc(C(=O)O)c2nc3cccc([C@@H](C)O)c3nc12` next
Return: > 10 µM

---

Test system: PC-3
Assay: Cytotoxicity against human PC-3 cells assessed as cell growth inhibition incubated for 48 hrs by SRB method
Format: functional, cell-based
Settings: PC-3, 48 h
readoutKind: IC50

C[C@@H](OC(=O)c1ccccc1N)c1cccc2nc3c(C(=O)O)cccc3nc12 :: > 10 µM
C[C@@H](c1cc(C(=O)O)c2nc3cccc([C@@H](C)O)c3nc2c1)c1cccc2nc3c(C(=O)O)cccc3nc12 :: > 10 µM

Enquiry: Which measured IC50 belongs to `CC(=O)c1cccc2nc3c(C(=O)O)ccc([C@H](C)c4cccc5nc6c(C(=O)O)cccc6nc45)c3nc12` , tested on PC-3?
Return: > 10 µM

Enquiry: Please answer likewise for `C[C@H](c1cc([C@@H](C)O)c2nc3cccc(C(=O)O)c3nc2c1)c1cccc2nc3c(C(=O)O)cccc3nc12`
Return: > 10 µM

Enquiry: What about `C[C@@H](O)c1cccc2nc3c(C(=O)O[C@H](C)c4cccc5nc6c(C(=O)O)cccc6nc45)cccc3nc12` ?
Return: 0.01 µM

---

Tested on: HCT-15
Assay: Cytotoxicity against human HCT-15 cells assessed as cell growth inhibition incubated for 48 hrs by SRB method
Format: functional, cell-based
Details: HCT-15, 48 h
readoutKind: IC50

C[C@@H](c1cccc2nc3c(C(=O)O)cccc3nc12)c1ccc(C(=O)O)c2nc3cccc([C@@H](C)O)c3nc12 :: > 10 µM
CC(=O)c1cccc2nc3c(C(=O)O[C@H](C)c4cccc5nc6c(C(=O)O)cccc6nc45)cccc3nc12 :: 0.06 µM

Enquiry: What is its IC50 for HCT-15? Entry: `C[C@@H](O)c1cccc2nc3c(C(=O)O)cccc3nc12`
Return: > 10 µM
